assay: pH measurement of probes in the HTRF assay buffer; format: physicochemical; conditions: 30 mM probe
Readout name: pH value of probe in the buffer
One number for each entry.

[[record]]
molecule = "O=C(O)c1ccccc1O [SA, salicylic acid]"
readout_name = "pH value of probe in the buffer"
recorded_measurement = 4.1


I'm hoping you can list pH value of probe in the buffer for every molecule here, please.
1. NC(=O)c1cccnc1 [NAM, nicotinamide]
2. N=C(N)c1ccccc1 [BZA, benzamidine]
3. NCc1cccnc1 [AMP, 3-(aminomethyl)pyridine]
4. O=C(O)c1cccnc1 [NA, nicotinic acid]

[7.2, 10.5, 9.4, 5.1]
